Each entry below lists one item and its recorded viability, T/C value.
# Tested on: 435261-313-R-J1-PDC tumor spheroid viability;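 note: spheroids exposed to compounds for 7 days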
# protocol: Anticancer human tumor 435261-313-R-J1-PDC patient-derived colon adenocarcinoma cell line growth inhibition [PI3K]
# experimentalConditions: second compound 0.0316 µM; first compound 1 µM; hits give low values; spheroids with HUVEC and MSC
Quick reminder: number only, in %, skip the unit.

[
  {
    "compound": "C#Cc1c(F)ccc2cc(O)cc(-c3ncc4c(N5CC6CCC(C5)N6)nc(OCC56CCCN5CC(F)C6)nc4c3F)c12 (stereo not given) + CC(Nc1ccc2c(c1)OCCn1cc(N3C(=O)OCC3C(F)F)nc1-2)C(N)=O",
    "viability, T/C [%]": 76.5
  },
  {
    "compound": "Cn1ncc(Cl)c1-c1cc(C(=O)NC(CN)Cc2cccc(F)c2)sc1Cl (stereo not given) + CC(Nc1ccc2c(c1)OCCn1cc(N3C(=O)OCC3C(F)F)nc1-2)C(N)=O",
    "viability, T/C [%]": 25.3
  },
  {
    "compound": "C=CC(=O)N1CCN(c2nc(=O)n(-c3c(C)ccnc3C(C)C)c3nc(-c4c(O)cccc4F)c(F)cc23)C(C)C1 (stereo not given) + COc1c(OCCCN2CCOCC2)ccc2c3n(c(=NC(=O)c4cnc(N)nc4)nc12)CCN3",
    "viability, T/C [%]": 30.6
  },
  {
    "compound": "Cn1nccc1Nc1nccc(-c2ccn(C(CO)c3ccc(Cl)c(F)c3)c(=O)c2)n1 (stereo not given) + COc1c(OCCCN2CCOCC2)ccc2c3n(c(=NC(=O)c4cnc(N)nc4)nc12)CCN3",
    "viability, T/C [%]": 17.9
  }
]

**Query** Field request: viability, T/C | item: CC(Cn1ccc(-c2ccc(C#N)c(Cl)c2)n1)NC(=O)c1cc(C(C)O)[nH]n1 (stereo not given) + Cc1nc(NC(=O)N2CCCC2C(N)=O)sc1-c1ccnc(C(C)(C)C(F)(F)F)c1
**Result** 84.8
